From: ChEMBL document CHEMBL1134336

# tested system: Prostaglandin G/H synthase 2 (Homo sapiens) (UniProt P35354)
# Sequence (whole entry): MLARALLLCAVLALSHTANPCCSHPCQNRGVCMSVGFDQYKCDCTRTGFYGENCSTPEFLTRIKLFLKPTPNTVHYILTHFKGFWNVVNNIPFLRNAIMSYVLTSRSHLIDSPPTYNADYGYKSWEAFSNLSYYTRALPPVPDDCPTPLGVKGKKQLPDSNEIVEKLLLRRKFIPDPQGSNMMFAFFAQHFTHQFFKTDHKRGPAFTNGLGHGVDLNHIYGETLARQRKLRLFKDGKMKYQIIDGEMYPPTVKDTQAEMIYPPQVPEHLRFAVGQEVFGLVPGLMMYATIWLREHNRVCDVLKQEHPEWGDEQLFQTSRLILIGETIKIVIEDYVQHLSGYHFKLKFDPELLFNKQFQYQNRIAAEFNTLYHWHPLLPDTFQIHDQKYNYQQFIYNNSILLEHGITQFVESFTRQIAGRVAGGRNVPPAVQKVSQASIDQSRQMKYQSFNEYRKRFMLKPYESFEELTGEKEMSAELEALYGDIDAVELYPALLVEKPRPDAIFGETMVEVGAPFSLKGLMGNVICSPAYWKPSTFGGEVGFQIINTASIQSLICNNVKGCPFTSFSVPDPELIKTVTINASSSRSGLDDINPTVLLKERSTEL
# experiment notes: Percentage inhibition of Prostaglandin G/H synthase 2 activity in human whole blood (HWB) at 10 uM
# Format: tissue-based
result type: inhibition (%)

Param request: inhibition | system Prostaglandin G/H synthase 2 (Homo sapiens) (UniProt P35354) | item CS(=O)(=O)c1ccc(-c2nc3cccnn3c2-c2ccc(F)cc2)cc1
61.2

I. Cc1ccc(-c2c(-c3ccc(S(C)(=O)=O)cc3)nn3c(C)c(C)cnc23)cc1
II. Cc1cc(C(F)(F)F)nc2c(-c3ccc(F)cc3)c(-c3ccc(S(C)(=O)=O)cc3)nn12
# argmax over inhibition for candidates I and II Provide the label of your selected option as the answer.
I
(I: 100%, II: 57.2%)
